Let's look at some compounds and their measured maximum recommended daily dose (mmol/kg-bw/day).
Tested on: human maximum recommended daily dose, FDA database
Assay: DSSTox (FDAMDD) FDA Maximum (Recommended) Daily Dose Database
Conditions: TherapeuticCategory: sedative; hypnotic; hits give low values
quantity: maximum recommended daily dose (mmol/kg-bw/day)

> print(dat)
                                   compound  experimental.result
1  C=CCC1(C(C)CCC)C(=O)N=C(O)NC1=O (stereo unspecified)               0.0128
2             C=CCC1(C(C)C)C(=O)NC(=O)NC1=O               0.0127
3                  CCC1(CC)C(=O)NC(=O)NC1=O               0.0543
4  CCN(CC)CCN1C(=O)CN=C(c2ccccc2F)c2cc(Cl)ccc21              0.00129
5    Cc1nnc2n1-c1sc(Br)cc1C(c1ccccc1Cl)=NC2             1.06e-05
6  CCC(=O)c1ccc2c(c1)N(CC(C)N(C)C)c1ccccc1S2 (stereo unspecified)              0.00245

---

System: human maximum recommended daily dose, FDA database
Experiment: DSSTox (FDAMDD) FDA Maximum (Recommended) Daily Dose Database
Settings: TherapeuticCategory: glucocorticoid; hits give low values
Description: The Food and Drug Administration (FDA) Center for Drug Evaluation and Research, Office of Pharmaceutical Science, Informatics and Computational Safety Analysis Staff's Maximum Recommended Daily Dose (FDAMDD) database contains values for over 1200 pharmaceuticals listed in Martindale: The Extra Pharmacopoeia (1973, 1983, and 1993) and The Physicians' Desk Reference (1995 and 1999). […]
quantity: maximum recommended daily dose (mmol/kg-bw/day)

> print(dat)
                                smiles.entry  experimental.result
 1  C[C@@H]1C[C@H]2[C@@H]3C[C@H](F)C4=CC(=O)C=C[C@]4(C)[C@H]3[C@@H](O)C[C@]2(C)[C@@]1(O)C(=O)CO              0.00102
 2  CCCC(=O)O[C@]1(C(=O)COC(=O)CC)[C@@H](C)C[C@H]2[C@@H]3CCC4=CC(=O)C=C[C@]4(C)[C@@]3(F)[C@@H](O)C[C@@]21C             0.000289
 3  CC(=O)OCC(=O)[C@@]1(OC(=O)C(C)C)[C@@H](C)C[C@H]2[C@@H]3CCC4=CC(=O)C=C[C@]4(C)[C@@]3(F)[C@@H](O)C[C@@]21C             0.000297
 4  CCCCC(=O)O[C@]1(C(=O)COC(C)=O)CC[C@H]2[C@@H]3CCC4=CC(=O)C=C[C@]4(C)[C@H]3[C@@H](O)C[C@@]21C              0.00684
 5  C[C@H]1C[C@H]2[C@@H]3CCC4=CC(=O)C=C[C@]4(C)[C@@]3(F)[C@@H](O)C[C@]2(C)[C@@]1(O)C(=O)CO             0.000382
 6  C[C@H]1C[C@@H]2[C@H]([C@@H](O)C[C@@]3(C)[C@H]2CC[C@]3(O)C(=O)COC(=O)CCC(=O)O)[C@@]2(C)C=CC(=O)C=C12               0.0084
 7  C[C@]12C=CC(=O)C=C1C(Cl)=C[C@@H]1[C@@H]2[C@@H](O)C[C@@]2(C)[C@H]1CC[C@]2(O)C(=O)CO             0.000529
 8  CCC(=O)O[C@]1(C(=O)COC(C)=O)CC[C@H]2[C@@H]3C[C@H](C)C4=CC(=O)C=C[C@]4(C)[C@H]3[C@@H](O)C[C@@]21C              0.00882
 9  C[C@H]1C[C@@H]2[C@H]([C@@H](O)C[C@@]3(C)[C@H]2CC[C@]3(O)C(=O)COC(=O)CCCCCCC(=O)N(C)CCS(=O)(=O)O)[C@@]2(C)C=CC(=O)C=C12               0.0061
10  CC(=O)OCC(=O)[C@@]1(O)[C@H](C)C[C@H]2[C@@H]3C[C@H](F)C4=CC(=O)C=C[C@]4(C)[C@H]3[C@@H](O)C[C@@]21C             0.000921
11  CC(=O)OCC(=O)[C@@]1(O)[C@@H](C)C[C@H]2[C@@H]3CCC4=CC(=O)C=C[C@]4(C)[C@@]3(F)[C@@H](O)C[C@@]21C             0.000345
12  CC(=O)OCC(=O)[C@@]1(O)CC[C@H]2[C@@H]3CCC4=CC(=O)C=C[C@]4(C)[C@H]3[C@@H](O)C[C@@]21C              0.00827
13  C[C@]12C=CC(=O)C=C1CC[C@@H]1[C@@H]2[C@@H](O)C[C@@]2(C)[C@H]1CC[C@]2(O)C(=O)CO              0.00924

---

System: human maximum recommended daily dose, FDA database
Test: DSSTox (FDAMDD) FDA Maximum (Recommended) Daily Dose Database
Settings: TherapeuticCategory: topical antipruritic; hits give low values
quantity: maximum recommended daily dose (mmol/kg-bw/day)

> print(dat)
                                   molecule                              assay.target  experimental.result
1  CC1CCC(C(C)C)C(O)C1 (stereo unspecified)  human maximum recommended daily dose, FDA database               0.0128

---

maximum recommended daily dose (mmol/kg-bw/day) values by entry
System: human maximum recommended daily dose, FDA database
Test: DSSTox (FDAMDD) FDA Maximum (Recommended) Daily Dose Database
Settings: TherapeuticCategory: sclerosing agent; hits give low values
quantity: maximum recommended daily dose (mmol/kg-bw/day)

> print(dat)
                                   molecule  experimental.result
1                CCCCCCCC/C=C\CCCCCCCC(=O)O                0.242
2  CCO[C@@H]1O[C@H](C(COCc2ccccc2)OCc2ccccc2)[C@H](OCc2ccccc2)[C@H]1O (some centres not stated)               0.0278

---

Test system: human maximum recommended daily dose, FDA database
Assay: DSSTox (FDAMDD) FDA Maximum (Recommended) Daily Dose Database
Settings: TherapeuticCategory: enzyme cofactor vitamin; hits give low values
quantity: maximum recommended daily dose (mmol/kg-bw/day)

> print(dat)
                               smiles.entry  experimental.result
1           Cc1ncc(C[n+]2csc(CCO)c2C)c(N)n1              0.00555
2  Cc1cc2nc3c(=O)[nH]c(=O)nc-3n(C[C@H](O)[C@H](O)[C@H](O)COP(=O)(O)O)c2cc1C               0.0011
3                        Cc1ncc(CO)c(CO)c1O               0.0394
4  Cc1cc2nc3c(=O)[nH]c(=O)nc-3n(C[C@H](O)[C@H](O)[C@H](O)CO)c2cc1C              0.00133

---

System: human maximum recommended daily dose, FDA database
Assay: DSSTox (FDAMDD) FDA Maximum (Recommended) Daily Dose Database
Conditions: TherapeuticCategory: antiulcerative; hits give low values
quantity: maximum recommended daily dose (mmol/kg-bw/day)

> print(dat)
                                    compound  experimental.result
 1  CN/C(=C\[N+](=O)[O-])NCCSCc1csc(CN(C)C)n1               0.0151
 2  COc1cc(C(=O)NC2CCCNC2)cc(OC)c1OC (stereo unspecified)                0.017
 3  COc1ccnc(CS(=O)c2nc3ccc(OC(F)F)cc3[nH]2)c1OC (stereo unspecified)              0.00174
 4  CC1(C)[C@@H](OC(=O)CCC(=O)O)CC[C@]2(C)[C@H]3C(=O)C=C4[C@@H]5C[C@@](C)(C(=O)O)CC[C@]5(C)CC[C@@]4(C)[C@]3(C)CC[C@@H]12              0.00876
 5  CC(C)=CCOc1ccc(/C=C/C(=O)c2ccc(OCC=C(C)C)cc2OCC(=O)O)cc1               0.0111
 6  CCCCC(C)(O)C/C=C/[C@H]1[C@H](O)CC(=O)[C@@H]1CCCCCCC(=O)OC (stereo partly specified)             3.48e-05
 7  CN1CCN(CC(=O)N2c3ccccc3C(=O)Nc3cccnc32)CC1              0.00711
 8    NC(N)=Nc1nc(CSCC/C(N)=N/S(N)(=O)=O)cs1              0.00198
 9                            O=C(O)CCC(=O)O                0.847
10                CN=C(NC#N)NCCSCc1nc[nH]c1C                0.159
11  COc1ccc2nc(S(=O)Cc3ncc(C)c(OC)c3C)[nH]c2c1 (stereo unspecified)              0.00579
